Data provenance is patent US20230277449A1.

- EXPERIMENTAL_PROTOCOL: in vivo
- EXPERIMENTAL_SETUP: pig, 2 mg/kg

COMPOUND_STRING	AUC(0-inf)
CN1CCc2cccc3c2[C@H]1Cc1ccc(O)c(O)c1-3	50.7 ng·h/mL

----------
- EXPERIMENTAL_PROTOCOL: Ex-vivo permeability of APO, MTP and ATN in Ussing diffusion chamber
- Assay type: in vitro ADME, pig
- EXPERIMENTAL_SETUP: female, pig; simulated saliva pH 7.4, standard 0.1 mM, mean (±SD), n=3; read-out: Apparent permeability (Papp)
Each entry below carries its reported Papp at 0.1 mM.

COMPOUND	OUTPUT_UNIT	Papp at 0.1 mM
COCCc1ccc(OCC(O)CNC(C)C)cc1 (centres unmarked)	×10⁻⁶ cm/s	2.48
CN1CCc2cccc3c2[C@H]1Cc1ccc(O)c(O)c1-3	×10⁻⁶ cm/s	3

----------
- EXPERIMENTAL_PROTOCOL: Ex-vivo permeability of APO, MTP and ATN in Ussing diffusion chamber
- Format: in vitro ADME, pig
- EXPERIMENTAL_SETUP: female, pig, pH 7.4; read-out: Apparent permeability (Papp)
QUANTITY_NAME: Papp at […] (×10⁻⁶ cm/s)

COMPOUND_STRING	QUANTITY_NAME	MEAS_VALUE
CN1CCc2cccc3c2[C@H]1Cc1ccc(O)c(O)c1-3	Papp at […]	3.13

----------
- EXPERIMENTAL_PROTOCOL: Intravenous administration of APO to rats
- Type: in vivo
- EXPERIMENTAL_SETUP: male, Wistar, rat, plasma, 2.0 mg/kg IV

COMPOUND	clearance / mL/min/kg
CN1CCc2cccc3c2[C@H]1Cc1ccc(O)c(O)c1-3 [APO, apomorphine]	153

----------
- EXPERIMENTAL_PROTOCOL: IV administration of APO to pigs, pharmacokinetics
- EXPERIMENTAL_SETUP: female, pig, plasma, 1 mg/kg

COMPOUND_STRING	AUC(0-inf) (ng·h/mL)
CN1CCc2cccc3c2[C@H]1Cc1ccc(O)c(O)c1-3	107

----------
- EXPERIMENTAL_PROTOCOL: in vitro
- EXPERIMENTAL_SETUP: female, pig, pH 7.4

COMPOUND	Papp at 6 h, 34 µg/ml
COCCc1ccc(OCC(O)CNC(C)C)cc1 (stereo not shown)	9.89 ×10⁻⁶ cm/s

----------
- EXPERIMENTAL_PROTOCOL: in vitro
- EXPERIMENTAL_SETUP: female, pig, pH 7.4

COMPOUND	OUTPUT_UNIT	Papp at 6 h
COCCc1ccc(OCC(O)CNC(C)C)cc1 (stereo not shown)	nm/s	10.2

----------
- EXPERIMENTAL_PROTOCOL: Physicochemical properties stated in the text (log P, pKa, solubility)
- EXPERIMENTAL_SETUP: gelatin hydrogel, aqueous with cosolvent or surfactant or cyclodextrin, read-out: solubility in buffered hydrogel
QUANTITY_NAME: solubility (mg/mL)

COMPOUND_STRING	MEAS_VALUE
CN1CCc2cccc3c2[C@H]1Cc1ccc(O)c(O)c1-3	40

----------
- EXPERIMENTAL_PROTOCOL: IV administration of APO to pigs, pharmacokinetics
- EXPERIMENTAL_SETUP: female, pig, plasma, 1 mg/kg
QUANTITY_NAME: Vd (L/kg)

COMPOUND_STRING	QUANTITY_NAME	OUTPUT_UNIT	MEAS_VALUE
CN1CCc2cccc3c2[C@H]1Cc1ccc(O)c(O)c1-3	Vd	L/kg	6.6
